- run description: yeast display, Sf9 membrane polyspecificity reagent, FACS + sequencing; frameworks hold sequencing errors
recorded endpoint: polyreactivity (PSR sort gate)

For orientation, consider the following solved cases.
# primary sequence, polyreactivity (PSR sort gate)
rows = [
    ("QVQLVESGGGLVQAGGSLRLICAASGRNFNHYAMGWYRQAPGKERELVAGITISCGSTYYADSVKGRFTISRDNSKNTVSLQINSLKPEVTAVYYCNAVYDYYRQSKWSMDYWGQGTQVTVSS", "low polyreactivity"),
    ("QVQLVESGGGLVQAGGSLRLSCAASGFIFSKYVMGWSRQAPGKERELVAAITRSGSSTYYADSVKGRFTISRDNAKNTVYLQMNSLKPEDTAVYYCAADGGYYDDDYWGQGTQVTVSS", "high polyreactivity"),
    ("QVQLVESGGGLDQAGGSLRLSCADSGSIFESYAMGWYRQAPGKERELVAAITKRGGSTYYADSVKGRFTISRDNAKNTVYLQMNSLKPEDTAVYYCNARWPGIGPIYDYWGQGTQVTVSS", "low polyreactivity"),
    ("QVQLVESGGVLVQAGGSLRLSCAASGSIFERYDMGWYRQAPGKERELVAAITSAGITYYADSVKGRFTISRDNAKNNVYLQMNSLKPEDTAVYYCAAQGRRGAPYRHVNEGDYWGQGTQVTVSS", "low polyreactivity"),
    ("QVQLVESGGGLVQAGGSLRLSCAASGLISESYAMGWYRQAPGKETELVAAISSGGSTYYADSVKGRFTISRDNAKNTVYLQMNSLNPEDTAVYFCNATGYKYNYGHAYYYAVDYWGQGTQVTVSS", "low polyreactivity"),
]

Given the sequence QVQLVESGGGLVQAGGSLRLSCAASGIIFRGYAMGWYRQAPGKERELVAAISKSGGSTYYADSVKGRFTISRDNAKNTVYLQMNSLKPEDTAVYYCAADVYKQYGYYYWGQGTQVTVSS , what is its reported polyreactivity (PSR sort gate)?
high polyreactivity

Given the sequence QVQLVESGGGLDQAGGSLRLSCAASGFIFYRYAMGWYRQAPGKERELVAAINWSGGGTYYADSVKGRFTISRDNAKNTVYLQMNSLKPEDTAVYYCAAVRSFRGSYWYEYWGQGTKVTVSS , what is its reported polyreactivity (PSR sort gate)?
high polyreactivity

====

- run description: yeast display, Sf9 membrane polyspecificity reagent, FACS + sequencing; frameworks hold sequencing errors
recorded endpoint: polyreactivity (PSR sort gate)

For orientation, consider the following solved cases.
# primary sequence, polyreactivity (PSR sort gate)
rows = [
    ("QVQLVESGGGLVQAGGSLRLSCAASGSIFRKNAMGWYRQAPGKERELVAAITGTGRTTYADSVKGRFTISRDNAKNTVYLQMNSLKPEDTAVYYCATSYHRRYDYWGQGTQVTVSS", "low polyreactivity"),
    ("QVHLVESGGGLVQAGGSLRLSCAASGFIFVRNAMGWYSQAPGKEREFVAAITRSGGSTYYADSVKVRFTISRDNAKNTVYLQMYSLKPEDTAVYYCAVLYHSRDSYTYRDEDYWGQGTQVTVSS", "low polyreactivity"),
    ("QVQLVESGGGLVQAGGSLRLSCAASGLTFWGNAMGWYRQAPGKEREFVAGIDRSSVSTYADSVKGRFTISRDNAKNTVYLQMNSLKPEDTAVYYCAVDEYGIWVGWVPYATFGMNYWGQGTQVTVSS", "high polyreactivity"),
    ("QVQLVESGGGLVQAGGSLRLSCAASGRTFPPYAMGWYRQAPGKERELVAAISGSGASTYYADSVKGRFTISRDNAKNTVYLQMNSLKPEDTAVYYCARYRGYWGRYYGVDYGYWGQGTQVTVSS", "high polyreactivity"),
    ("QVQLVESGGGLVQAGGSLRLSCAASGYIFHNYAMGWYIQAPGKERELVAAITRSAGRTYYADSVKGRFTISRDNAKNTVYLQMNSLKPEDTAVYYCNARYGGRFYYCGQGTQVTVSS", "high polyreactivity"),
]

Given the sequence QVQLVESGGGLVQAGGSLRLSCAATGSIFLYYAMGWYRQAPGKERELVAGINRVGSTNYADSVKGRFTISRDNAKNTVYLELNSLKPEDTAVYYCAAKYRNRYDYWGQGTQATVSS , what is its reported polyreactivity (PSR sort gate)?
low polyreactivity

Given the sequence QVQLVESGGGLVQAGGSLRLSCAASGRIFTHNVMGWYRQAPGTERELVAAISGGGGSTYYADSVKGRFTLSRDNAKNNVYKQMNSLKPEDTAVYYCAKDNHYEADRYDYWGQGTQVTVSS , what is its reported polyreactivity (PSR sort gate)?
low polyreactivity

Given the sequence QVQLVESGGGLVQAGGSLRISCAASGSTFYRNAMGWYRQAPGKERELVARISSRGGRTSYADSVKGRFTISRDNAKNNVYFQMNSLKPEDTAVYYCAADYYVNRIQRYDYWGQGTQVTVSS , what is its reported polyreactivity (PSR sort gate)?
high polyreactivity

Given the sequence QVQLVESAGGLVLAGGSLRLSCAASGYTVVRYAMGWYRQEPGKERELVAAISRSGGSTYYADSVKGRFTISRDNANNTVYLQMNSLNPEDTAVYYCNAYPYSYYDYDYWGQGTQVTVSS , what is its reported polyreactivity (PSR sort gate)?
high polyreactivity

Given the sequence QVQLVESGGGLVQAGGSLRLSCAASGITFNYYAMGWYRQAPGKERELVAAISWSGDRTYYADTVKGRFTISRDNAKYTVYLQMNSLKPEDTAVYYCAAKSVGEGDYWGQGTQVTVSS , what is its reported polyreactivity (PSR sort gate)?
low polyreactivity

Given the sequence QLQLVQSGGGLVQAGGSLRLSCAASGITSPYAMGWYRQAPGKERELVARNSKGGGSTYYADSVKGRFTISRDNAKNTVYLQMNSLKPEDTAVYYCAADWYNRSRPRYYTRYYYWGQGTQVTVSS , what is its reported polyreactivity (PSR sort gate)?
high polyreactivity

Given the sequence QVQLVESGGGLVQAGGGLRLSCAASGTFKRNAMGWYRQAPGKERELVATITRTGSTTYADSVKGRFTISRDNAKNTVYLQMNSLKPEDTAVYYCAAGYPPEDPEDYWGQGTQVTVSS , what is its reported polyreactivity (PSR sort gate)?
low polyreactivity

Data origin: the nanobody polyreactivity screen of Harvey et al. (2022)
